Source listed as patent US20250188075A1.

Test system: HCT 116 cells
methodDescription: HCT 116 cell proliferation assay, CTG
Type: cell-based
conditionNotes: Homo sapiens; HCT 116, CTG, 96 h; median; read-out: 2D-PROLI HCT 116 CTG 96 h, IC50 - [mol/l] (median)
Provide the reported log10 IC50 of each item.
Parameter value (number): base-10 log of IC50 in nM.

log10 IC50 for HCT 116 cells with input O=C(Cc1cc(C2CC2)on1)Nc1cc(-c2[nH]c3cccnc3c2-c2ccccn2)ccn1 [Example 27] equals 2.69

For Cc1nc(C)c(CC(=O)Nc2cc(-c3[nH]c4cccnc4c3-c3ccccn3)ccn2)s1 [Example 18] on HCT 116 cells, measured log10 IC50 was 2.25

Short answer on HCT 116 cells for Cc1cc(CC(=O)Nc2cc(-c3[nH]c4cccnc4c3-c3ccccn3)ccn2)no1 [Example 26] , log10 IC50: 2.70

Assay HCT 116 cells, sample Cn1cc(C(CC(F)F)C(=O)Nc2cc(-c3[nH]c4cccnc4c3-c3ccccn3)ccn2)cn1 (centres unmarked) [Example 19] , log10 IC50 read: 3.23

Measured on HCT 116 cells, O=C(Cc1cnc2ccccn12)Nc1cc(-c2[nH]c3cccnc3c2-c2ccccn2)ccn1 [Example 1] has a documented log10 IC50 of 3.59

Form: item Cc1nocc1CC(=O)Nc1cc(-c2[nH]c3cccnc3c2-c2ccccn2)ccn1 [Example 30] ; test system HCT 116 cells; log10 IC50: 3.06

Result for Cn1cnc(CC(=O)Nc2cc(-c3[nH]c4cccnc4c3-c3ccccn3)ccn2)c1 [Example 5] , tested on HCT 116 cells, log10 IC50: 3.45

GET /values?item= Cc1noc(C)c1CC(=O)Nc1cc(-c2[nH]c3cccnc3c2-c2ccccn2)ccn1 [Example 12] &system= HCT 116 cells returns log10 IC50: 3.03

Response field log10 IC50 (HCT 116 cells) for item O=C(Cc1cnc2ccccc2n1)Nc1cc(-c2[nH]c3cccnc3c2-c2ccccn2)ccn1 [Example 6] : 1.96

Reported HCT 116 cells log10 IC50 for item Cc1cc(CC(=O)Nc2cc(-c3[nH]c4cccnc4c3-c3ccccn3)ccn2)nn1C [Example 16] was 2.85

I looked up Cc1cc(CC(=O)Nc2cc(-c3[nH]c4cccnc4c3-c3ccccn3)ccn2)n(C)n1 [Example 14] and its log10 IC50 for HCT 116 cells was 2.74

The reported HCT 116 cells log10 IC50 of Cc1ncc(CC(=O)Nc2cc(-c3[nH]c4cccnc4c3-c3ccccn3)ccn2)o1 [Example 24] is 2.62

Assay HCT 116 cells, sample Cn1nc(CC(=O)Nc2cc(-c3[nH]c4cccnc4c3-c3ccccn3)ccn2)cc1C(F)(F)F [Example 21] , log10 IC50 read: 2.56

GET /values?item= O=C(Cc1ccn(CC(F)(F)F)n1)Nc1cc(-c2[nH]c3cccnc3c2-c2ccccn2)ccn1 [Example 20] &system= HCT 116 cells returns log10 IC50: 2.54

The reported HCT 116 cells log10 IC50 of CC(C)n1ccc(CC(=O)Nc2cc(-c3[nH]c4cccnc4c3-c3ccccn3)ccn2)n1 [Example 28] is 2.77

The measured log10 IC50 that Cn1nc(CC(=O)Nc2cc(-c3[nH]c4cccnc4c3-c3ccccn3)ccn2)cc1C1CC1 [Example 29] showed for HCT 116 cells is 2.71

GET /values?item= O=C(Cc1cnco1)Nc1cc(-c2[nH]c3cccnc3c2-c2ccccn2)ccn1 [Example 4] &system= HCT 116 cells returns log10 IC50: 2.73
